- target under test: Vascular endothelial growth factor receptor 2 (Homo sapiens)
- procedure details: Binding affinity to VEGFR2 at 0.058 uM
readout type: Ki (nM)
Output spec: scalar in nM, unitless text.

Simply: `FC(F)(F)c1ccc(Nc2nnc(-c3cccnc3CCc3ccncc3)o2)cc1` , Vascular endothelial growth factor receptor 2 (Homo sapiens), Ki = 120

====

Below are IC50 values measured for Vascular endothelial growth factor receptor 1 (Homo sapiens).
Output spec: scalar in nM, unitless text.

Simply: `FC(F)(Cl)Oc1ccc(Nc2nnc(-c3ccncc3CCc3ccncc3)o2)cc1` , Vascular endothelial growth factor receptor 1 (Homo sapiens), IC50 = 810

Simply: `CC(C)(C)c1ccc(Nc2nnc(-c3cccnc3CCc3ccncc3)o2)cc1` , Vascular endothelial growth factor receptor 1 (Homo sapiens), IC50 = 770

Simply: `FC(F)(F)Oc1cccc(Nc2nnc(-c3cccnc3CCc3ccncc3)o2)c1` , Vascular endothelial growth factor receptor 1 (Homo sapiens), IC50 = 260

Simply: `FC(F)(F)Oc1cccc(Nc2nnc(-c3cnccc3CCc3ccncc3)o2)c1` , Vascular endothelial growth factor receptor 1 (Homo sapiens), IC50 = 740

Simply: `COc1ccc(Nc2nnc(-c3cccnc3CCc3ccncc3)o2)cc1OC` , Vascular endothelial growth factor receptor 1 (Homo sapiens), IC50 = 180

====

Below are IC50 values measured for Vascular endothelial growth factor receptor 2 (Homo sapiens, UniProt P35968).
Output spec: scalar in nM, unitless text.

given smiles	IC50 (nM)
FC(F)(F)Oc1ccc(Nc2nnc(-c3cnccc3CCc3ccncc3)o2)cc1	360

Per the records, this molecule ( `c1cnc(CCc2ccncc2)c(-c2nnc(NCc3ccc4c(c3)OCO4)o2)c1` ) has IC50 equal to 85

Per the records, this molecule ( `FC(F)(F)c1cccc(Nc2nnc(-c3cccnc3CCc3ccncc3)o2)c1` ) has IC50 equal to 64

Per the records, this molecule ( `FC(F)(F)c1ccc(Nc2nnc(-c3ccncc3CCc3ccncc3)o2)cc1` ) has IC50 equal to 290

====

Consider the following compounds and their measured IC50 readings.
- target under test: Vascular endothelial growth factor receptor 2 (Homo sapiens, UniProt P35968)
- Sequence (P35968 whole entry): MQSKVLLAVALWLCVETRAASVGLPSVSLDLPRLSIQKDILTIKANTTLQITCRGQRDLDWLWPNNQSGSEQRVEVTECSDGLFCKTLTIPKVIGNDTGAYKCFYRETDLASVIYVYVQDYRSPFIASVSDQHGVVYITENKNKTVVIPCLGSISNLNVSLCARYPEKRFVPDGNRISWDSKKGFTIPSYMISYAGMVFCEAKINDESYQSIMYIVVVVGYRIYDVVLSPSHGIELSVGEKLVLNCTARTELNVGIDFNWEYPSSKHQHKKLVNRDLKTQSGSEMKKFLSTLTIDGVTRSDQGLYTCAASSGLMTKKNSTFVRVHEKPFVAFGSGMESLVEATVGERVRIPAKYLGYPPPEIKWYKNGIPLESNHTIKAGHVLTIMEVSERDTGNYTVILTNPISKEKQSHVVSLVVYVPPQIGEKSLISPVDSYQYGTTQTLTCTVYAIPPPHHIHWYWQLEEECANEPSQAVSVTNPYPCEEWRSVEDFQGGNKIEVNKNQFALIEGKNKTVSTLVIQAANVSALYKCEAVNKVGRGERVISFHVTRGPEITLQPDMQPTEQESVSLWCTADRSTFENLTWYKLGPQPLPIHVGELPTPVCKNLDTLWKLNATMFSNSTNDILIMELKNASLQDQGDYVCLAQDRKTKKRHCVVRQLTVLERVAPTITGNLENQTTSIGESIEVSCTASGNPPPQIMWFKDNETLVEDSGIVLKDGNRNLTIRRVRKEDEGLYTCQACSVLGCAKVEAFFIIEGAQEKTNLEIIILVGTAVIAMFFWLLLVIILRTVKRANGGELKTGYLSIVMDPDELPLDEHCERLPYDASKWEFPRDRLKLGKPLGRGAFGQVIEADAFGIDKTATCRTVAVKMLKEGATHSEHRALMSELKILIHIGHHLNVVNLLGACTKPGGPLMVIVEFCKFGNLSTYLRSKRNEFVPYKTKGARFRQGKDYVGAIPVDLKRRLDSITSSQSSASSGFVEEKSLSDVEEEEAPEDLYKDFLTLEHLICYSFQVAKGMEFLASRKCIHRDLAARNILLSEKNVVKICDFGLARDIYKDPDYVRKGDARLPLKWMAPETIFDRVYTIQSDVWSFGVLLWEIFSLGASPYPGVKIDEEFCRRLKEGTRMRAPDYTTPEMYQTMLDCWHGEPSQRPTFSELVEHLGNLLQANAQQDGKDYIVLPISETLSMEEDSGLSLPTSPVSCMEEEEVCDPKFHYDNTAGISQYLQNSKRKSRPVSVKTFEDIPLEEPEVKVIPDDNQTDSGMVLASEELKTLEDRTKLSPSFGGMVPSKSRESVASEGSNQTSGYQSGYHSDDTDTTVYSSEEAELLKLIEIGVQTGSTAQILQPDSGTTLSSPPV
- procedure details: Inhibition of VEGFR2 phosphorylation in HEK293 cells by cell-based ELISA
- test settings: read-out: IC50
Output spec: scalar in nM, unitless text.

Record excerpt, results attached:
given smiles	target under test	IC50, nM
CC(C)(C)c1ccc(Nc2nnc(-c3cnccc3CCc3ccncc3)o2)cc1	Vascular endothelial growth factor receptor 2 (Homo sapiens, UniProt P35968)	520
FC(F)(F)Oc1ccc(Nc2nnc(-c3cnccc3CCc3ccncc3)o2)cc1	Vascular endothelial growth factor receptor 2 (Homo sapiens, UniProt P35968)	510
FC(F)(F)c1cccc(Nc2nnc(-c3ccncc3CCc3ccncc3)o2)c1	Vascular endothelial growth factor receptor 2 (Homo sapiens, UniProt P35968)	1110
FC(F)(F)c1ccc(Nc2nnc(-c3ccncc3CCc3ccncc3)o2)cc1	Vascular endothelial growth factor receptor 2 (Homo sapiens, UniProt P35968)	720
CC(C)(C)c1ccc(Nc2nnc(-c3ccncc3CCc3ccncc3)o2)cc1	Vascular endothelial growth factor receptor 2 (Homo sapiens, UniProt P35968)	320

Per the records, this compound ( `c1cnc(CCc2ccncc2)c(-c2nnc(NCc3ccc4c(c3)OCO4)o2)c1` ) has IC50 equal to 290

Per the records, this compound ( `FC(F)(F)Oc1cccc(Nc2nnc(-c3cnccc3CCc3ccncc3)o2)c1` ) has IC50 equal to 760

Per the records, this compound ( `FC(F)(F)c1cccc(Nc2nnc(-c3cnccc3CCc3ccncc3)o2)c1` ) has IC50 equal to 2540

Per the records, this compound ( `FC(F)(F)Oc1ccc(Nc2nnc(-c3ccncc3CCc3ccncc3)o2)cc1` ) has IC50 equal to 660

====

- target under test: Vascular endothelial growth factor receptor 2 (Homo sapiens)
- procedure details: Binding affinity to VEGFR2 at 0.043 uM
readout type: pKi
// returns pKi (minus log10 of molar concentration), number only

Simply: `CC(C)(C)c1ccc(Nc2nnc(-c3cccnc3CCc3ccncc3)o2)cc1` , Vascular endothelial growth factor receptor 2 (Homo sapiens), pKi = 6.89

====

- target under test: UniProt:P35968
- procedure details: Inhibition of VEGFR2 phosphorylation in HEK293 cells by cell-based ELISA
- test settings: read-out: IC50
Consider the following compounds and their measured IC50 readings.
Output spec: scalar in nM, unitless text.

given smiles	readout type	experimental result
FC(F)(Cl)Oc1ccc(Nc2nnc(-c3ccncc3CCc3ccncc3)o2)cc1	IC50	530

Per the records, this compound ( `FC(F)(F)Oc1cccc(Nc2nnc(-c3cccnc3CCc3ccncc3)o2)c1` ) has IC50 equal to 110

Per the records, this compound ( `COc1ccc(Nc2nnc(-c3cccnc3CCc3ccncc3)o2)cc1OC` ) has IC50 equal to 110

====

- target under test: Vascular endothelial growth factor receptor 2 (Homo sapiens, UniProt P35968)
readout type: IC50

given smiles	IC50
FC(F)(F)c1cccc(Nc2nnc(-c3cc4ccccc4nc3CCc3ccncc3)o2)c1	> 10 µM
CC(C)(C)c1ccc(Nc2nnc(-c3cnccc3CCc3ccncc3)o2)cc1	0.31 µM
FC(F)(F)Oc1ccc(Nc2nnc(-c3cccnc3CCc3ccncc3)o2)cc1	0.044 µM

Simply: `FC(F)(F)c1cccc(Nc2nnc(-c3cccnc3CCc3ccc4ccccc4n3)o2)c1` , Vascular endothelial growth factor receptor 2 (Homo sapiens, UniProt P35968), IC50 = > 10 µM

Simply: `FC(F)(F)c1cccc(Nc2nnc(-c3cccnc3CCc3cccc4ncccc34)o2)c1` , Vascular endothelial growth factor receptor 2 (Homo sapiens, UniProt P35968), IC50 = 5.64 µM

Simply: `Cc1ccccc1Nc1nnc(-c2cccnc2CCc2ccncc2)o1` , Vascular endothelial growth factor receptor 2 (Homo sapiens, UniProt P35968), IC50 = > 10 µM

Simply: `FC(F)(F)c1cccc(Nc2nnc(-c3cnccc3CCc3ccncc3)o2)c1` , Vascular endothelial growth factor receptor 2 (Homo sapiens, UniProt P35968), IC50 = 0.72 µM

====

- target under test: Vascular endothelial growth factor receptor 2 (Homo sapiens)
Consider the following compounds and their measured IC50 readings.
Output spec: scalar in nM, unitless text.

Record excerpt, results attached:
given smiles	target under test	u	IC50
COc1cccc(Nc2nnc(-c3cccnc3CCc3ccncc3)o2)c1	Vascular endothelial growth factor receptor 2 (Homo sapiens)	nM	170
CC(C)c1ccc(Nc2nnc(-c3ccncc3CCc3ccncc3)o2)cc1	Vascular endothelial growth factor receptor 2 (Homo sapiens)	nM	250
FC(F)(F)Oc1cccc(Nc2nnc(-c3cccnc3CCc3ccncc3)o2)c1	Vascular endothelial growth factor receptor 2 (Homo sapiens)	nM	69
FC(F)(F)Oc1ccc(Nc2nnc(-c3ccncc3CCc3ccncc3)o2)cc1	Vascular endothelial growth factor receptor 2 (Homo sapiens)	nM	350
FC(F)(F)c1cccc(Nc2nnc(-c3cccnc3CCc3ccc4[nH]ncc4c3)o2)c1	Vascular endothelial growth factor receptor 2 (Homo sapiens)	nM	3870

Here is another compound to look at.
Per the records, this compound ( `CC(C)c1ccc(Nc2nnc(-c3cccnc3CCc3ccncc3)o2)cc1` ) has IC50 equal to 51

====

- target under test: Vascular endothelial growth factor receptor 1 (Homo sapiens, UniProt P17948)
- Sequence (P17948 whole entry): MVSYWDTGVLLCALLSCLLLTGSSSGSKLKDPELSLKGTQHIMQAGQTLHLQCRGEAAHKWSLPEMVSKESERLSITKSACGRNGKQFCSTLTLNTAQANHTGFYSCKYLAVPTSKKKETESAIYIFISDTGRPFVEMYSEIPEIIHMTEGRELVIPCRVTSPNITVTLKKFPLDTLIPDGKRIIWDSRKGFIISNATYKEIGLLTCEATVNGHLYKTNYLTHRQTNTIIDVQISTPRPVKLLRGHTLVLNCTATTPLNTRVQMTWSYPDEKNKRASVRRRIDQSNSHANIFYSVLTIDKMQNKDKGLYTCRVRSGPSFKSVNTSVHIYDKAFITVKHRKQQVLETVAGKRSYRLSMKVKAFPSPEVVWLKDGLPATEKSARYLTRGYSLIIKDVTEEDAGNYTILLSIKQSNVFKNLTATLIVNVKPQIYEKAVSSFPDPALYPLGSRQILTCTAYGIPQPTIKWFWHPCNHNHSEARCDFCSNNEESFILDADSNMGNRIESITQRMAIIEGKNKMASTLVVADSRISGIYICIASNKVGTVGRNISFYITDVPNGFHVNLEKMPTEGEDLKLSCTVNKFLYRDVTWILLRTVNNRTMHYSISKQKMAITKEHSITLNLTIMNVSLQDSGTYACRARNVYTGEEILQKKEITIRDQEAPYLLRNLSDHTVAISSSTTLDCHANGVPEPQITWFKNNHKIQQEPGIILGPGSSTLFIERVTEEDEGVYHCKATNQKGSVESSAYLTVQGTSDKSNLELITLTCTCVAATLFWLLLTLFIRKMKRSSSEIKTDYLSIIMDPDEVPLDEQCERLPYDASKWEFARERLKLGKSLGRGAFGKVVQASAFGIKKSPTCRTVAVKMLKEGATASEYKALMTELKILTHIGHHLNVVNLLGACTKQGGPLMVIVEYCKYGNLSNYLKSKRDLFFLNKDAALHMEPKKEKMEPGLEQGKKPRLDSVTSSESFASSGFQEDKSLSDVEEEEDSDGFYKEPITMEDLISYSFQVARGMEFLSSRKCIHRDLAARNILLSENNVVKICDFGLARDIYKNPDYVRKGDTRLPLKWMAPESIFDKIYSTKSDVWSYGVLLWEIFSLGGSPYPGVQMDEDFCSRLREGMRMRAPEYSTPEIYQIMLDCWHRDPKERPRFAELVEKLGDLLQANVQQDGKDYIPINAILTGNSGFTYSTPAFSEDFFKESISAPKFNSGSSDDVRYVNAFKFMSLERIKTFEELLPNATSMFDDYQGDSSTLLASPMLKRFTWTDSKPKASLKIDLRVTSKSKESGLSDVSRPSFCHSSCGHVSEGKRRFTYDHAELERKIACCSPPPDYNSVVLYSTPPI
Categorize each record by its IC50 using low group = under 400 nM, middle group = from 400 nM up to 700 nM, high group = 700 nM and over

given smiles	assigned class
FC(F)(F)c1cccc(Nc2nnc(-c3cccnc3CCc3cccc4ncccc34)o2)c1	high group
CC(C)(C)c1ccc(Nc2nnc(-c3cc4ccccc4nc3CCc3ccncc3)o2)cc1	high group
Cc1ccccc1Nc1nnc(-c2cccnc2CCc2ccncc2)o1	high group

Exam item: # classify by IC50 band: `CC(C)c1ccc(Nc2nnc(-c3ccncc3CCc3ccncc3)o2)cc1`
Marked response: low group

Exam item: # classify by IC50 band: `COc1cccc(Nc2nnc(-c3cccnc3CCc3ccncc3)o2)c1`
Marked response: middle group

Exam item: # classify by IC50 band: `FC(F)(F)c1ccc(Nc2nnc(-c3cccnc3CCc3ccncc3)o2)cc1`
Marked response: low group

Exam item: # classify by IC50 band: `CC(C)c1ccc(Nc2nnc(-c3cccnc3CCc3ccncc3)o2)cc1`
Marked response: middle group

Exam item: # classify by IC50 band: `FC(F)(Cl)Oc1ccc(Nc2nnc(-c3cccnc3CCc3ccncc3)o2)cc1`
Marked response: high group

Exam item: # classify by IC50 band: `CC(C)(C)c1ccc(Nc2nnc(-c3ccncc3CCc3ccncc3)o2)cc1`
Marked response: low group

Exam item: # classify by IC50 band: `FC(F)(F)c1cccc(Nc2nnc(-c3cccnc3CCc3cccnc3)o2)c1`
Marked response: high group

Exam item: # classify by IC50 band: `FC(F)(F)c1cccc(Nc2nnc(-c3cccnc3CCc3ccc4ccccc4n3)o2)c1`
Marked response: high group

====

Consider the following molecules and their measured pIC50 readings.
- target under test: Vascular endothelial growth factor receptor 2 (Homo sapiens, UniProt P35968)
- procedure details: Inhibition of VEGFR2 phosphorylation in HEK293 cells by cell-based ELISA
- test settings: read-out: IC50
// returns pIC50 (minus log10 of molar concentration), number only

Record excerpt, results attached:
given smiles	pIC50
CC(C)c1ccc(Nc2nnc(-c3cccnc3CCc3ccncc3)o2)cc1	7.12
FC(F)(F)c1cccc(Nc2nnc(-c3cccnc3CCc3ccncc3)o2)c1	6.96
FC(F)(F)c1ccc(Nc2nnc(-c3cccnc3CCc3ccncc3)o2)cc1	7.12

Per the records, this molecule ( `FC(F)(Cl)Oc1ccc(Nc2nnc(-c3cnccc3CCc3ccncc3)o2)cc1` ) has pIC50 equal to 6.23

Per the records, this molecule ( `Cc1ccc(Nc2nnc(-c3cccnc3CCc3ccncc3)o2)cc1C(F)(F)F` ) has pIC50 equal to 7.04

Per the records, this molecule ( `FC(F)(F)Oc1ccc(Nc2nnc(-c3cccnc3CCc3ccncc3)o2)cc1` ) has pIC50 equal to 7.29

Per the records, this molecule ( `COc1cccc(Nc2nnc(-c3cccnc3CCc3ccncc3)o2)c1` ) has pIC50 equal to 6.54

Per the records, this molecule ( `FC(F)(F)Oc1cccc(Nc2nnc(-c3ccncc3CCc3ccncc3)o2)c1` ) has pIC50 equal to 6.07

Per the records, this molecule ( `Clc1ccc(Nc2nnc(-c3cccnc3CCc3ccncc3)o2)cc1Cl` ) has pIC50 equal to 7.03

Per the records, this molecule ( `Cc1cccc(Nc2nnc(-c3cccnc3CCc3ccncc3)o2)c1` ) has pIC50 equal to 5.67

Per the records, this molecule ( `CC(C)c1ccc(Nc2nnc(-c3ccncc3CCc3ccncc3)o2)cc1` ) has pIC50 equal to 6.41

Per the records, this molecule ( `CC(C)(C)c1ccc(Nc2nnc(-c3cccnc3CCc3ccncc3)o2)cc1` ) has pIC50 equal to 7.20

Per the records, this molecule ( `FC(F)(Cl)Oc1ccc(Nc2nnc(-c3cccnc3CCc3ccncc3)o2)cc1` ) has pIC50 equal to 7.36

Per the records, this molecule ( `FC(F)(F)c1ccc(Nc2nnc(-c3cnccc3CCc3ccncc3)o2)cc1` ) has pIC50 equal to 6.13
